Every entry's value here was drawn from patent US12351581B2.

Target: FGFR2 N549H (Homo sapiens, UniProt P21802, N549H)
Construct: biochemical assays using purified intracellular domains of the respective isoforms
Sequence (P21802 399-821 N549H limits assumed): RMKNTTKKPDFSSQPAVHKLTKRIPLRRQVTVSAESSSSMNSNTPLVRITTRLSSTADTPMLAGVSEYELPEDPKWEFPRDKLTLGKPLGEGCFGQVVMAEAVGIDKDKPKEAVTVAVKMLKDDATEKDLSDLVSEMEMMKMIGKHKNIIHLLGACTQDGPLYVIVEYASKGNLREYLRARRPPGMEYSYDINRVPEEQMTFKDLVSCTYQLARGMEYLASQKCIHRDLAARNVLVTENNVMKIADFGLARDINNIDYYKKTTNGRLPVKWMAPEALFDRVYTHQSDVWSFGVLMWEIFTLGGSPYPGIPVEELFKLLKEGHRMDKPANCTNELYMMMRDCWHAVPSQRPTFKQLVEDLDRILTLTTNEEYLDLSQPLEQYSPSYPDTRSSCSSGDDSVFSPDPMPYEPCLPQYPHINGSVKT
Experiment: FGFR mutant enzyme assay (HTRF KinEASE-TK)
Conditions: ATP 0.9 uM
Note to self: use condition met only for IC50 readings below 0.2 nM; a reading exactly at 0.2 nM still gets condition not met.

CC(=O)N1CCC[C@H](n2ncc(-c3cc(O[C@H](C)c4ccc(F)cn4)c4c(C#N)cnn4c3)c2C)C1 condition not met
C[C@@H](Oc1cc(-c2cnn(C3CCNCC3)c2)cn2ncc(C#N)c12)c1ncccc1F condition met
Cc1c(-c2cc(O[C@H](C)c3ccc(F)cn3)c3c(C#N)cnn3c2)cnn1C1CCN(C(=O)C2(N)CCC2)CC1 condition not met
C[C@@H](Oc1cc(-c2cnn([C@H]3CC[C@H](O)CC3)c2)cn2ncc(C#N)c12)c1ccc(F)cn1 condition met

Note: attention shifts to another entry.
Query: Given the entry "Cc1c(-c2cc(O[C@H](c3ccc(F)cn3)C(F)(F)F)c3c(C#N)cnn3c2)cnn1[C@H]1CC[C@H](O)CC1" , would its reported IC50 be below 0.2 nM?
Reply: condition not met

====

Target: FGFR2 V564I (Homo sapiens, UniProt P21802, V564I)
Construct: biochemical assays using purified intracellular domains of the respective isoforms; purchased Carna Bioscience 08-546
Sequence (P21802 399-821 V564I limits assumed): as the sequence (P21802 399-821 N549H limits assumed) above, with H151N, V166I counted along it
Test: FGFR mutant enzyme assay (HTRF KinEASE-TK)
Format: biochemical
Settings: ATP 0.4 uM
metric.name: IC50 (nM)
Kindly provide the numeric value in nM only, without the unit symbol.

Please review the entries below; each comes with its answer.
compound	measured.value
Cc1c(-c2cc(O[C@H](C)c3ccc(F)cn3)c3c(C#N)cnn3c2)cnn1[C@@H]1CCCN(C(=O)[C@H](C)O)C1 [Compound 49]	10
Cc1nn(C2CCN(C)CC2)c(C)c1-c1cc(O[C@H](C)c2ccccn2)c2c(C#N)cnn2c1 [Compound 6]	4.3
C[C@@H](Oc1cc(-c2cnn(CCO)c2N)cn2ncc(C#N)c12)c1ccc(F)cn1 [Compound 31]	5.6
Cc1c(-c2cc(O[C@H](C)c3ccc(F)cn3)c3c(C#N)cnn3c2)cnn1[C@H]1CC[C@](C)(O)CC1 [Compound 22]	1.4
Cc1c(-c2cc(O[C@H](C)c3ccc(F)cn3)c3c(C#N)cnn3c2)cnn1[C@H]1CC[C@@H](O)CC1 [Compound 46]	1
CC(=O)N[C@H]1CC[C@H](n2ncc(-c3cc(O[C@H](C)c4ccc(F)cn4)c4c(C#N)cnn4c3)c2C)CC1 [Compound 36]	2

# next compound below
Query: What measured IC50 goes with Cc1c(-c2cc(O[C@H](C)c3ccccn3)c3c(C#N)cnn3c2)cnn1C1CCN(C)CC1 [Compound 7] ?
Reply: 1

====

Target: FGFR2-WT (Homo sapiens, UniProt P21802)
Experiment: Phosphorylated FGFR2-WT (pFGFR2-WT) cell assay, KATOIII cells
Conditions: 1 hour incubation, phospho FGFR2 HTRF
Experimental: KATOIII cells were grown in the appropriate growth medium, IMDM supplemented with 20% fetal bovine serum. Cells were seeded into a 384-well at 1×10^5 cells/25 μL/well. […] Following the 1-hour incubation with compounds, cell lysates were prepared and phospho FGFR2 was measured using the HTRF Phospho-FGFR2 (TYR653/654) Detection Kits (CisBio, cat #64FGFR2Y6PEG). […] Plates were read on the En Vision multimode plate reader via HTRF dual wavelength detection. […]
metric.name: IC50 (nM)
Kindly provide the numeric value in nM only, without the unit symbol.

Please review the entries below; each comes with its answer.
molecule	IC50 [nM]
CC[C@@H](Oc1cc(-c2cnn([C@H]3CC[C@H](O)CC3)c2C)cn2ncc(C#N)c12)c1ccc(F)cn1 [Compound 60]	3.5
C[C@@H](Oc1cc(-c2ccc(N3CC[C@@H](O)[C@@H](O)C3)nc2)cn2ncc(C#N)c12)c1ccc(F)cn1 [Compound 25]	3

Query: Which IC50 is reported with FGFR2-WT (Homo sapiens, UniProt P21802) for this entry: C[C@@H](Oc1cc(-c2cnn(C3CCN(C#N)CC3)c2N)cn2ncc(C#N)c12)c1ccc(F)cn1 [Compound 47] ?
Reply: 4

====

Biological target: FGFR2 (Homo sapiens, UniProt P21802)
Construct: biochemical assays using purified intracellular domains of the respective isoforms; purchased Carna Bioscience 08-134
Sequence (P21802 399-821 limits assumed): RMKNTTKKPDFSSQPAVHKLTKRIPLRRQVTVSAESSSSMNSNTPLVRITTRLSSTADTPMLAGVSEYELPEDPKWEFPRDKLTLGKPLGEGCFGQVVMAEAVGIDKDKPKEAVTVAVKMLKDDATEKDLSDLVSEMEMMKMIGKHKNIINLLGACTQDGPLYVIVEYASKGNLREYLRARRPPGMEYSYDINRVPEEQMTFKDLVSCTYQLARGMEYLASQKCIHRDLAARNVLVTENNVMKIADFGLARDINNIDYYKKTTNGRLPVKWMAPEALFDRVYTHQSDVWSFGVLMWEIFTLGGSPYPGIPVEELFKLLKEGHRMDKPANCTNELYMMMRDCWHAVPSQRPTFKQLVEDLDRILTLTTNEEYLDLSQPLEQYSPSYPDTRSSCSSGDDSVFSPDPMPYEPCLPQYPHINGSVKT
Experiment: FGFR wild type enzyme assay (HTRF KinEASE-TK)
Type: biochemical
Settings: compound table after the examples; ATP 2 uM; read-out: Enz FGFR2
metric.name: pIC50
For clarity, pIC50 is expressed as the negative log10 of concentration in mol/L.

Query: What measured pIC50 goes with "Cc1c(-c2cc(O[C@H](C)c3ccc(F)cn3)c3c(C#N)cnn3c2)cnn1[C@H]1CCCNC1" ?
Reply: 9.30

Query: What measured pIC50 goes with "Cc1c(-c2cc(O[C@H](C)c3ccc(F)cn3)c3c(C#N)cnn3c2)cnn1[C@H]1CC[C@H](O)CC1" ?
Reply: 9.52

Query: What measured pIC50 goes with "Cc1nn(C2CCNCC2)c(C)c1-c1cc(O[C@H](C)c2ccccn2)c2c(C#N)cnn2c1" ?
Reply: 9.00

Query: What measured pIC50 goes with "CC[C@@H](Oc1cc(-c2cnn([C@H]3CC[C@H](O)CC3)c2C)cn2ncc(C#N)c12)c1ccc(F)cn1" ?
Reply: 9.40

Query: What measured pIC50 goes with "Cc1c(-c2cc(O[C@H](C)c3ccc(F)cn3)c3c(C#N)cnn3c2)cnn1[C@H]1CCCN(C(=O)C2(O)CCC2)C1" ?
Reply: 9.00

Query: What measured pIC50 goes with "C[C@@H](Oc1cc(-c2ccc(N3CC[C@@H](O)[C@@H](O)C3)nc2)cn2ncc(C#N)c12)c1ccc(F)cn1" ?
Reply: 9.52

====

Target: FGFR2-WT (Homo sapiens)
Experiment: Phosphorylated FGFR2-WT (pFGFR2-WT) cell assay, KATOIII cells
Assay type: cell-based
Details: 1 hour incubation, phospho FGFR2 HTRF
Each entry below carries its reported log10 of IC50.
Short version: log10 scale, IC50, nM.

Query: What measured log10 of IC50 goes with "Cc1c(-c2cc(O[C@H](C)c3cccnc3)c3c(C#N)cnn3c2)cnn1[C@H]1CC[C@H](O)CC1" ?
Reply: 1.08

Query: What measured log10 of IC50 goes with "Cc1c(-c2cc(O[C@@H](C)c3ccc(F)cn3)c3c(C#N)cnn3c2)cnn1[C@H]1CC[C@H](O)CC1" ?
Reply: 1.78

Query: What measured log10 of IC50 goes with "Cc1c(-c2cc(O[C@@H](c3ccc(F)cn3)C(F)(F)F)c3c(C#N)cnn3c2)cnn1[C@H]1CC[C@H](O)CC1" ?
Reply: 0.30

Query: What measured log10 of IC50 goes with "Cc1c(-c2cc(O[C@H](C)c3ccc(F)cn3)c3c(C#N)cnn3c2)cnn1[C@H]1CCCN(C(CO)CO)C1" ?
Reply: 0.78

Query: What measured log10 of IC50 goes with "C[C@@H](Oc1cc(-c2cnn(CCO)c2N)cn2ncc(C#N)c12)c1ccc(F)cn1" ?
Reply: 0.85

Query: What measured log10 of IC50 goes with "Cc1c(-c2cc(O[C@H](C)c3ccc(F)cn3)c3c(C#N)cnn3c2)cnn1[C@@H]1CCCC[C@H]1O" ?
Reply: 1.68

Query: What measured log10 of IC50 goes with "Cc1c(-c2cc(O[C@H](C)c3ccc(F)cn3)c3c(C#N)cnn3c2)cnn1[C@@H]1CCC[C@H](O)C1" ?
Reply: 0.48

Query: What measured log10 of IC50 goes with "Cc1c(-c2cc(O[C@H](C)c3ccc(F)cn3)c3c(C#N)cnn3c2)cnn1C1CCS(=O)(=O)CC1" ?
Reply: 0.78

Query: What measured log10 of IC50 goes with "Cc1c(-c2cc(O[C@H](C)c3ccc(F)cn3)c3c(C#N)cnn3c2)cnn1[C@H]1CCCN(C(=O)C2(O)CCC2)C1" ?
Reply: 0.83

Query: What measured log10 of IC50 goes with "Cc1c(-c2cc(O[C@H](C)c3ccc(F)cn3)c3c(C#N)cnn3c2)cnn1[C@H]1CCC[C@H](O)C1" ?
Reply: 0.60

Query: What measured log10 of IC50 goes with "C[C@@H](Oc1cc(-c2cnn([C@H]3CC[C@H](O)CC3)c2)cn2ncc(C#N)c12)c1ccc(F)cn1" ?
Reply: 0.20

Query: What measured log10 of IC50 goes with "Cc1c(-c2cc(O[C@@H](C)c3ccc(F)cn3)c3c(C#N)cnn3c2)cnn1[C@H]1CC[C@@H](O)CC1" ?
Reply: 1.76

Query: What measured log10 of IC50 goes with "Cc1c(-c2cc(O[C@H](C)c3ccccn3)c3c(C#N)cnn3c2)cnn1C1CCN(C)CC1" ?
Reply: 0.78

====

Target: FGFR2 (Homo sapiens, UniProt P21802)
Construct: biochemical assays using purified intracellular domains of the respective isoforms; purchased Carna Bioscience 08-134
Assay: FGFR wild type enzyme assay (HTRF KinEASE-TK)
Assay type: biochemical
Settings: Table 3; ATP 2 uM; read-out: FGFR2 Enz
Each entry below carries its reported pIC50.
For clarity, pIC50 is expressed as the negative log10 of concentration in mol/L.

Please review the entries below; each comes with its answer.
compound	pIC50
CC[C@@H](Oc1cc(-c2cnn([C@H]3CC[C@H](O)CC3)c2C)cn2ncc(C#N)c12)c1ccc(F)cn1 [Compound 60]	9.40
Cc1c(-c2cc(O[C@@H](C)c3ccc(F)cn3)c3c(C#N)cnn3c2)cnn1[C@H]1CC[C@@H](O)CC1 [Compound 50]	8.26

# next compound below
Query: What measured pIC50 goes with CC(=O)N[C@H]1CC[C@H](n2ncc(-c3cc(O[C@H](C)c4ccc(F)cn4)c4c(C#N)cnn4c3)c2C)CC1 [Compound 36] ?
Reply: 9.40
